system: SK-OV-3; assay: NCI in vitro cancer screen, Ovarian Cancer; format: cell-based, human; conditions: Homo sapiens, SK-OV-3; read-out: LC50 (the source's name)
Readout label: CC50 (µM)
Please give a number only; it is taken to be in µM.

Sample "COc1cc(/C=C/c2cc(O)cc(OCC=C(C)C)c2)ccc1O" — what was its CC50? 38.9

Sample "CC(C)=CCc1c(O)cc(/C=C/c2ccc(O)cc2)c(CC=C(C)C)c1O" — what was its CC50? 53.2

Sample "CC(C)=CCc1c(O)cc(/C=C/c2ccc(O)c(O)c2)c(CC=C(C)C)c1O" — what was its CC50? 46.5

Continuing:
Sample "COc1cc(/C=C/c2cc(O)cc(OC)c2CC=C(C)C)ccc1O" — what was its CC50? 34.7

---

test system: SK-MEL-5; assay: NCI in vitro cancer screen, Melanoma; assay type: cell-based, human; settings: SK-MEL-5
Readout label: TGI

For orientation, consider the following solved cases.
Sample "COc1cc(O)cc(/C=C/c2ccc(O)c(O)c2)c1CC=C(C)C" — what was its TGI? 2.52 µM

Sample "CC(C)=CCc1c(O)cc(/C=C/c2ccc(O)c(O)c2)c(CC=C(C)C)c1O" — what was its TGI? 3.68 µM

Sample "CC(C)=CCc1c(O)cc(/C=C/c2ccc(O)cc2)c(CC=C(C)C)c1O" — what was its TGI? 6.17 µM

Sample "COc1cc(/C=C/c2cc(O)cc(OCC=C(C)C)c2)ccc1O" — what was its TGI? 11.5 µM

Sample "COc1cc(/C=C/c2cc(O)cc(OC)c2CC=C(C)C)ccc1O" — what was its TGI? 0.75 µM

Continuing:
Sample "CC(C)=CCOc1cc(O)cc(/C=C/c2ccc(O)c(O)c2)c1" — what was its TGI? 8.35 µM

Sample "COc1cc(/C=C/c2cc(O)c(CC=C(C)C)c(O)c2)ccc1O" — what was its TGI? 8.54 µM

---

system: A549/ATCC; assay: NCI in vitro cancer screen, Non-Small Cell Lung Cancer; type: cell-based, human; settings: Homo sapiens
We begin with a simple list: items and their reported GI50.
Please give a number only; it is taken to be in nM.

Record "COc1cc(/C=C/c2cc(O)cc(OC)c2CC=C(C)C)ccc1O" : what is its GI50 with A549/ATCC? 500

Record "COc1cc(/C=C/c2cc(O)c(CC=C(C)C)c(O)c2)ccc1O" : what is its GI50 with A549/ATCC? 4010

Record "CC(C)=CCc1c(O)cc(/C=C/c2ccc(O)c(O)c2)c(CC=C(C)C)c1O" : what is its GI50 with A549/ATCC? 1880

Record "CC(C)=CCOc1cc(O)cc(/C=C/c2ccc(O)c(O)c2)c1" : what is its GI50 with A549/ATCC? 4740

Record "CC(C)=CCc1c(O)cc(/C=C/c2ccc(O)cc2)c(CC=C(C)C)c1O" : what is its GI50 with A549/ATCC? 2690

Continuing:
Record "COc1cc(O)cc(/C=C/c2ccc(O)c(O)c2)c1CC=C(C)C" : what is its GI50 with A549/ATCC? 2620

Record "COc1cc(/C=C/c2cc(O)cc(OCC=C(C)C)c2)ccc1O" : what is its GI50 with A549/ATCC? 3280

---

assay: Acute toxicity study (maximum tolerated dose); type: in vivo; conditions: in vivo; mouse, single IP injection, observed 2 weeks
Readout label: MTD at 2 weeks (mg/kg)
Please give a number only; it is taken to be in mg/kg.

Sample COc1cc(/C=C/c2cc(O)cc(OC)c2CC=C(C)C)ccc1O [USYDS1] — what was its MTD at 2 weeks? 100

---

We begin with a simple list: items and their reported CC50.
test system: CCRF-CEM; assay: NCI in vitro cancer screen, Leukemia; assay type: cell-based, human; conditions: Homo sapiens, read-out: LC50 (the source's name)

For orientation, consider the following solved cases.
Record "CC(C)=CCc1c(O)cc(/C=C/c2ccc(O)c(O)c2)c(CC=C(C)C)c1O" : what is its CC50 with CCRF-CEM? 71.2 µM

Record "COc1cc(/C=C/c2cc(O)cc(OC)c2CC=C(C)C)ccc1O" : what is its CC50 with CCRF-CEM? > 100 µM

Record "CC(C)=CCc1c(O)cc(/C=C/c2ccc(O)cc2)c(CC=C(C)C)c1O" : what is its CC50 with CCRF-CEM? 82.1 µM

Record "CC(C)=CCOc1cc(O)cc(/C=C/c2ccc(O)c(O)c2)c1" : what is its CC50 with CCRF-CEM? > 100 µM

Record "COc1cc(/C=C/c2cc(O)cc(OCC=C(C)C)c2)ccc1O" : what is its CC50 with CCRF-CEM? > 100 µM

Record "COc1cc(O)cc(/C=C/c2ccc(O)c(O)c2)c1CC=C(C)C" : what is its CC50 with CCRF-CEM? > 100 µM

Continuing:
Record "COc1cc(/C=C/c2cc(O)c(CC=C(C)C)c(O)c2)ccc1O" : what is its CC50 with CCRF-CEM? > 100 µM

---

tested on: HCT-15; test: NCI in vitro cancer screen, Colon Cancer; format: cell-based, human; conditions: Homo sapiens, HCT-15; read-out: LC50 (the source's name)
We begin with a simple list: items and their reported CC50.
Please give a number only; it is taken to be in µM.

Record "CC(C)=CCc1c(O)cc(/C=C/c2ccc(O)cc2)c(CC=C(C)C)c1O" : what is its CC50 with HCT-15? 48.2

Record "COc1cc(/C=C/c2cc(O)cc(OCC=C(C)C)c2)ccc1O" : what is its CC50 with HCT-15? 97.3

Continuing:
Record "COc1cc(/C=C/c2cc(O)c(CC=C(C)C)c(O)c2)ccc1O" : what is its CC50 with HCT-15? 84.5

Record "CC(C)=CCc1c(O)cc(/C=C/c2ccc(O)c(O)c2)c(CC=C(C)C)c1O" : what is its CC50 with HCT-15? 22

---

tested on: COLO 205; experiment: NCI in vitro cancer screen, Colon Cancer; type: cell-based, human; details: COLO 205
We begin with a simple list: items and their reported TGI.
Please give a number only; it is taken to be in µM.

For orientation, consider the following solved cases.
Sample "COc1cc(O)cc(/C=C/c2ccc(O)c(O)c2)c1CC=C(C)C" — what was its TGI? 83.6

Sample "CC(C)=CCc1c(O)cc(/C=C/c2ccc(O)cc2)c(CC=C(C)C)c1O" — what was its TGI? 30.2

Sample "COc1cc(/C=C/c2cc(O)c(CC=C(C)C)c(O)c2)ccc1O" — what was its TGI? 28.9

// below: TGI requested for another molecule
Sample "COc1cc(/C=C/c2cc(O)cc(OCC=C(C)C)c2)ccc1O" — what was its TGI? 31.7

---

We begin with a simple list: items and their reported LC50.
system: NCI-H23; experiment: NCI in vitro cancer screen, Non-Small Cell Lung Cancer; assay type: cell-based, human; details: Homo sapiens, NCI-H23
Please give a number only; it is taken to be in µM.

For orientation, consider the following solved cases.
Record "CC(C)=CCc1c(O)cc(/C=C/c2ccc(O)c(O)c2)c(CC=C(C)C)c1O" : what is its LC50 with NCI-H23? 29.5

Record "COc1cc(/C=C/c2cc(O)cc(OC)c2CC=C(C)C)ccc1O" : what is its LC50 with NCI-H23? 62.5

Continuing:
Record "CC(C)=CCOc1cc(O)cc(/C=C/c2ccc(O)c(O)c2)c1" : what is its LC50 with NCI-H23? 81.9

---

tested on: A498; experiment: NCI in vitro cancer screen, Renal Cancer; type: cell-based, human; conditions: Homo sapiens, A498
Field: label. Allowed values: 1.0 (GI50 < 9 µM) or 0.0 (GI50 >= 9 µM).

Completed entries (count: 5):
A record lists "CC(C)=CCc1c(O)cc(/C=C/c2ccc(O)cc2)c(CC=C(C)C)c1O" . Is its GI50 below 9 µM? 0.0

A record lists "CC(C)=CCc1c(O)cc(/C=C/c2ccc(O)c(O)c2)c(CC=C(C)C)c1O" . Is its GI50 below 9 µM? 0.0

A record lists "COc1cc(/C=C/c2cc(O)cc(OCC=C(C)C)c2)ccc1O" . Is its GI50 below 9 µM? 0.0

A record lists "COc1cc(/C=C/c2cc(O)cc(OC)c2CC=C(C)C)ccc1O" . Is its GI50 below 9 µM? 1.0

A record lists "COc1cc(/C=C/c2cc(O)c(CC=C(C)C)c(O)c2)ccc1O" . Is its GI50 below 9 µM? 1.0

Shifting focus to the compound that follows.
A record lists "COc1cc(O)cc(/C=C/c2ccc(O)c(O)c2)c1CC=C(C)C" . Is its GI50 below 9 µM? 0.0

---

tested on: MDA-MB-468; assay: NCI in vitro cancer screen, Breast Cancer; assay type: cell-based, human; conditions: Homo sapiens, MDA-MB-468
We begin with a simple list: items and their reported GI50.
Please give a number only; it is taken to be in µM.

For orientation, consider the following solved cases.
Sample "COc1cc(/C=C/c2cc(O)cc(OCC=C(C)C)c2)ccc1O" — what was its GI50? 2.72

Sample "CC(C)=CCc1c(O)cc(/C=C/c2ccc(O)cc2)c(CC=C(C)C)c1O" — what was its GI50? 2.3

Sample "COc1cc(O)cc(/C=C/c2ccc(O)c(O)c2)c1CC=C(C)C" — what was its GI50? 2.42

Sample "COc1cc(/C=C/c2cc(O)cc(OC)c2CC=C(C)C)ccc1O" — what was its GI50? 0.36

Sample "CC(C)=CCOc1cc(O)cc(/C=C/c2ccc(O)c(O)c2)c1" — what was its GI50? 2.53

Sample "COc1cc(/C=C/c2cc(O)c(CC=C(C)C)c(O)c2)ccc1O" — what was its GI50? 1.68

// below: GI50 requested for another molecule
Sample "CC(C)=CCc1c(O)cc(/C=C/c2ccc(O)c(O)c2)c(CC=C(C)C)c1O" — what was its GI50? 2.12
